Assay: acute toxicity (LD50) in mice
Details: mouse, in vivo, intravenous injection
Procedure: The LD50 value of D-glucaro-δ-lactam sodium salt in mice is not less than 3 g/kg by the intraveous injection and not less than 5 g/kg by the oral administration. The LD50 value of D-glucaro-δ-lactam methyl ester in mice is not less than 5 g/kg by the intraveous injection and not less than 10 g/kg by the oral administration. With respect to 6-O-triphenylmethyl-D-gluco-δ-lactam, the LD50 value is not less than 300 mg/kg in case of the subcutaneous administration in mice.
Counter-ions that a name gives are not always drawn.
For each entry below, report its LD50 value.

Query: LD50; subject: O=C(O)[C@H]1NC(=O)[C@H](O)[C@@H](O)[C@@H]1O [D-glucaro-δ-lactam sodium salt] ≥ 3000 mg/kg

Here is the next item to consider.
Query: LD50; subject: COC(=O)[C@H]1NC(=O)[C@H](O)[C@@H](O)[C@@H]1O [D-glucaro-δ-lactam methyl ester] ≥ 5000 mg/kg

* * *

Experiment: acute toxicity (LD50) in mice
Settings: mouse, in vivo, oral administration
Counter-ions that a name gives are not always drawn.
readout-kind: LD50

Query: LD50; subject: `COC(=O)[C@H]1NC(=O)[C@H](O)[C@@H](O)[C@@H]1O` ≥ 10000 mg/kg

Continuing:
Query: LD50; subject: O=C(O)[C@H]1NC(=O)[C@H](O)[C@@H](O)[C@@H]1O [D-glucaro-δ-lactam sodium salt] ≥ 5000 mg/kg

* * *

Assay: acute toxicity (LD50) in mice
Conditions: mouse, in vivo, sc, subcutaneous administration
readout-kind: LD50

Query: LD50; subject: `O=C1N[C@H](COC(c2ccccc2)(c2ccccc2)c2ccccc2)[C@@H](O)[C@H](O)[C@H]1O` ≥ 300 mg/kg
